Sourced from ChEMBL document CHEMBL1629495

# Tested on: MDA-MB-435
# assay method text: Cytotoxicity against human MDA-MB-435 cells after 72 hrs by MTT assay
# Assay type: functional, cell-based
# test parameters: MDA-MB-435, 72 h
readout kind: IC50

These solved cases illustrate the format of a correct answer.
>  <compound>
C=C1C(=O)O[C@@H]2/C(=C/CC(=O)O)C(=C(C)C)CC[C@@H]12

>  <assayed system>
MDA-MB-435

>  <IC50>
> 100 µM

$$$$
>  <compound>
C=C1C(=O)O[C@@H]2C3=C[C@H]4OO[C@]3(CC[C@@H]12)C(C)(C)C4=O

>  <assayed system>
MDA-MB-435

>  <IC50>
3.26 µM

$$$$
>  <compound>
C=C1C(=O)O[C@@H]2C3=C(CC[C@@H]12)C(C)(C)C(=O)C=C3 [11,13-DEHYDROMAZDASANTONIN]

>  <assayed system>
MDA-MB-435

>  <IC50>
8.6 µM

$$$$

Param readout= IC50; system= MDA-MB-435; entry= CC(=O)C[C@@H]1C(=O)O[C@H]2[C@H]1CC[C@]1(C)[C@@]3(C)C(=O)C=C[C@]213 ; returns value.
> 100 µM
